experimentalTarget: Delta-type opioid receptor (Mus musculus, UniProt P32300, W284E)
Sequence (P32300 whole entry W284E): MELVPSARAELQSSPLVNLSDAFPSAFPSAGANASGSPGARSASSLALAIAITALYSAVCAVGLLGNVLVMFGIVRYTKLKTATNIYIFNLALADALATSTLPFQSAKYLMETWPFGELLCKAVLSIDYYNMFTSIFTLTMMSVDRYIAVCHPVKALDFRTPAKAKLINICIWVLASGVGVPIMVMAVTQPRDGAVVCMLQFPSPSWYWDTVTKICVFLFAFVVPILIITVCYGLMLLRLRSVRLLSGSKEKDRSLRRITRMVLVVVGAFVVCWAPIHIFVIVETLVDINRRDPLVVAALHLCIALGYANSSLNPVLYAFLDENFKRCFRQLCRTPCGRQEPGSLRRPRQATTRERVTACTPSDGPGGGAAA
procedureDetails: Displacement of [3H]- diprenorphine from delta-W284E-receptor expressed in HEK 293 cells
# Ki values compiled below
// return numeric value only (unit: nM, not printed)

Oc1ccc2c3c1O[C@H]1c4[nH]c5ccccc5c4C[C@@]4(O)[C@@H](C2)N(CC2CC2)CC[C@]314 ... 1.82
N=C(N)Nc1ccc2[nH]c3c(c2c1)C[C@@]1(O)[C@H]2Cc4ccc(O)c5c4[C@@]1(CCN2CC1CC1)[C@H]3O5 ... 1.1

Field: next compound
Please give measured Ki of the following entry: CN1CC[C@]23c4c5ccc(O)c4O[C@H]2C(=O)C2(Cc4ccccc4C2)C[C@@]3(O)[C@H]1C5
46.6

These data points were gathered from ChEMBL document CHEMBL1134793.
